Target: CTDSP1; further: reference of the scale not given here
Experiment: pooled miR-30 sensor sort-seq; sequence = guide strand
Settings: shRNA
sensor-assay potency score (higher = more potent) values by entry
MEASUREMENT NAME: sensor-assay potency score (higher = more potent)

PRIMARY SEQUENCE	NUMBER
TTCACTGGCTTGAAGGAGCTGT	0.427
TAGACCTGGTGGACCACCCCAT	-0.5
TACACGTCGTCCACACGGCTGA	-0.19
TCCAGGTCGATGACCACGCAGA	-1.79
TATTGGACTGGGGTCTTAGGGA	-0.481
TTGGACTGGGGTCTTAGGGATG	-1.55
TTTGAAGGCACTGACACGGGGC	0.517
TCGATGACCACGCAGATCTTGT	-1.32
